Target: Schistosoma mansoni thioredoxin glutathione reductase (TGR)
Test: qHTS Assay for the Inhibitors of Schistosoma Mansoni Peroxiredoxins; note: nearly all actives have a fitted effect of over 60% in size
Settings: purified TGR, DTNB reduction, TNB absorbance 405 nm; series mostly up to 114 µM
In all, about 360,000 compounds went through this assay and about 11,000 (3.1%) were called active. About 4% were inconclusive and are not listed. Calls come from the whole dose curve; as a rule, active = well fitted inhibition curve with a large enough effect; inconclusive = small, poorly fitted or top-dose-only effect; inactive = no such curve, though single readings can be large or run the other way. Only a selection was taken, and actives are over-represented in it overall.
Choose the fitting class; nothing outside active, inactive is accepted.

Ask | Which outcome was entered for the compound Cc1cc(C)c2oc(C(=O)Nc3ccc(S(=O)(=O)N(C)c4ccccc4)cc3)cc(=O)c2c1 in this test?
Reply | inactive

Ask | Which outcome was entered for the compound Cc1ccc2oc(C(=O)Nc3ccc(S(=O)(=O)N4CCCCCC4)cc3)cc(=O)c2c1 in this test?
Reply | inactive

Ask | Which outcome was entered for the compound Cc1ccc(N2C(=O)CC(Nc3cccc4ccccc34)C2=O)cc1 (stereo not drawn) in this test?
Reply | active

---

Biological target: Schistosoma mansoni thioredoxin glutathione reductase (TGR) (UniProt Q962Y6)
Assay: qHTS Assay for the Inhibitors of Schistosoma Mansoni Peroxiredoxins; note: nearly all actives have a fitted effect of over 60% in size
Details: purified TGR, DTNB reduction, TNB absorbance 405 nm; series mostly up to 114 µM
The campaign covered roughly 360,000 compounds. About 11,000 (3.1%) were called active. Inconclusive results (about 4%) are left out. Calls come from the whole dose curve; as a rule, active = well fitted inhibition curve with a large enough effect; inconclusive = small, poorly fitted or top-dose-only effect; inactive = no such curve, though single readings can be large or run the other way. Shown is part of a subset that was picked to be rich in actives.
Choose the fitting class; nothing outside true (active), false (inactive) is accepted.

Answered examples (6):
1. O=C(NC(=S)Nc1ccc(S(=O)(=O)Nc2ncccn2)cc1)c1cccc(Br)c1 :: true
2. CCOC(=O)c1cc2c(=O)n3ccccc3nc2n(CCCOC)c1=NC(=O)C(C)Oc1ccccc1 (configuration not stated) :: false
3. NS(=O)(=O)c1ccc(NC(=S)NC(=O)c2cccnc2)cc1 :: true
4. NS(=O)(=O)c1ccc(NC(=S)Nc2ccc(Br)c(Cl)c2)cc1 :: false
5. COc1ccc(OC)c(C(C)NC(=S)Nc2ccc(S(=O)(=O)Nc3ncccn3)cc2)c1 (configuration not stated) :: false
6. COc1cc(NS(=O)(=O)c2ccc(NC(=O)CN3C(=O)c4ccccc4C3=O)cc2)ncn1 :: false

Ask | Which outcome was entered for the molecule COc1cccc(NC(=O)c2csnn2)c1 in this test?
Reply | false

Ask | Which outcome was entered for the molecule COc1ccc(-c2cc(C(F)(F)F)nc(SCC(=O)N(C)Cc3ccccc3)n2)cc1OC in this test?
Reply | false

Ask | Which outcome was entered for the molecule CCn1c(C)c(C)c2cc(C(=O)NCCc3cc(OC)ccc3OC)ccc21 in this test?
Reply | false

Ask | Which outcome was entered for the molecule CCS(=O)(=O)N1CCc2cc(C(=O)NCc3ccc(C)cc3)ccc21 in this test?
Reply | false

Ask | Which outcome was entered for the molecule CCOC(=O)c1ccc(NC(=O)CC2C(=O)N(c3ccccc3)C(=O)N2Cc2cccs2)cc1 (configuration not stated) in this test?
Reply | false

Ask | Which outcome was entered for the molecule Cc1cc(NS(=O)(=O)c2ccc(NC(=O)c3cccnc3)cc2)nc(C)n1 in this test?
Reply | false

Ask | Which outcome was entered for the molecule NS(=O)(=O)c1ccc(NC(=S)NC(=O)c2cccc(Br)c2)cc1 in this test?
Reply | true

Ask | Which outcome was entered for the molecule O=C(NC(=S)Nc1cccc2c(O)cccc12)c1cccc(Br)c1 in this test?
Reply | false

Ask | Which outcome was entered for the molecule CCOc1ccc(-c2cc(C)n3nc(C(=O)Nc4ccc(C)c(C)c4)cc3n2)cc1 in this test?
Reply | false

Ask | Which outcome was entered for the molecule CCOC(=O)c1c(C)n(S(=O)(=O)c2ccc(C)cc2C)c2ccc(NS(=O)(=O)c3ccc(C)cc3C)cc12 in this test?
Reply | false

Ask | Which outcome was entered for the molecule Cc1ccc(/C=C/C(=O)O)cc1S(=O)(=O)N1CCC(Cc2ccccc2)CC1 in this test?
Reply | true
